System: RPMI-8226
assay.details: NCI tumour cell line growth inhibition, 48 h
The source made the active and inactive calls. Rule as the data show it: active = GI50 up to about 1.1 µM and inactive = higher.

compound	GI50
CN(C)c1ccc(/C=C/C(=O)C(C)(C)C)cc1Br	19.5 µM (inactive)
Brc1ccc(C2(N3CCCCC3)CCCCC2)s1	19.6 µM (inactive)
CN(NC(=O)c1ccc(Cl)cc1)C1=NCCCCN1	> 100 µM (inactive)
CC1(C)CC(=O)C2=C(C1)c1c(ccc3ccccc13)NC2c1cn(Cc2ccc(Cl)cc2)c2ccccc12 (centres undefined)	> 100 µM (inactive)

----------
Test system: TK-10
assay.details: NCI tumour cell line growth inhibition, 48 h
Calls of active or inactive are those of the source. Cut-off read from the data, not from the text of the source: active = GI50 up to about 1.1 µM and inactive = higher.
Outcome codes: active, inactive

compound	tested.system	category.label
CC(C)[C@@H](C)CC[C@@H](C)C1CC=C2[C@@H]3CCC4C[C@@H](O[Si](C)(C)C(C)(C)C)CC[C@]4(C)C3CC[C@@]21C (stereo partly specified)	TK-10	inactive
COc1ccccc1C(O)(c1ccccc1)C(O)(c1ccccc1)c1ccccc1OC (stereo unspecified)	TK-10	inactive
COc1cccc(C2c3cc4c(cc3OC(N3CCCC3)C2C)OCO4)c1 (stereo unspecified)	TK-10	inactive
COc1cc2c(cc1OC)C(=O)Cc1ccc3c(c1CNCC2)OCO3	TK-10	inactive
N#CC1(C#N)C(C#N)(C#N)C12CCCCCC2	TK-10	inactive
N#CSC#Cc1ccc(C#CSC#N)cc1	TK-10	inactive
N=C(N)N/N=C\c1c(-c2ccccc2)nc2sccn12	TK-10	inactive
CCOP(=O)(OCC)C(C(=O)OC)C(=O)C(=O)Nc1c(C)cc(Br)cc1C (stereo unspecified)	TK-10	inactive
Cc1ccc(/N=N/N(C)C(=O)C(C)N)cc1 (stereo unspecified)	TK-10	inactive
C/C(=N/Nc1nc(C)cc(O)n1)C(=O)O	TK-10	inactive
COC1C(O)C(C)OC(O[C@@H]2C[C@H]3CC[C@@H]4[C@H](CC[C@]5(C)[C@@H](C6=CC(=O)OC6)CC[C@]45O)[C@@]3(C)[C@H](O)C2)C1O (stereo partly specified)	TK-10	active

FYI, the data here is from ChEMBL document CHEMBL1201862.
